Reference source: patent US8952024B2

- Test system: windgrass (Apera spica-venti)
- test: Test B postemergence plant response
- Type: in vivo
- setup.conditions: Postemergence, 250 g ai/ha; scale 0 to 100 (0 no effect, 100 complete control)
quantity.kind: Plant response rating, Windgrass
// response body must contain only the number

Param request: Plant response rating, Windgrass | system windgrass (Apera spica-venti) | item CC(C)Cc1ncc(C(=O)C2=C(O)CCCC2=O)c(=O)n1-c1ccccc1 85

# lookup: windgrass (Apera spica-venti) Plant response rating, Windgrass, key = CCCc1ncc(C(=O)C2=C(O)CCCC2=O)c(=O)n1-c1cccc(C)c1 90

Report its Plant response rating, Windgrass with windgrass (Apera spica-venti) as the test system: Cc1ccc(F)c(-n2c(-c3ccccc3)ncc(C(=O)C3=C(O)CCCC3=O)c2=O)c1 85

Param request: Plant response rating, Windgrass | system windgrass (Apera spica-venti) | item O=C1CCCC(O)=C1C(=O)c1cnc(-c2ccc(Br)cc2)n(-c2ccccc2)c1=O 100

Jot down Plant response rating, Windgrass (windgrass (Apera spica-venti)) of O=C1CCCC(O)=C1C(=O)c1cnc(C2CC2)n(-c2ccccc2)c1=O . 95

State recorded Plant response rating, Windgrass with windgrass (Apera spica-venti), entry CCOCCn1c(-c2ccccc2)ncc(C(=O)C2=C(O)CCCC2=O)c1=O , no comment. 45

* * *

- Test system: rice (Oryza sativa)
- test: Test B flooded paddy test
- Type: in vivo
- setup.conditions: 250 g ai/ha; flooded paddy test; visual rating on 0 to 100 scale (0 no effect, 100 complete control) after 13 to 15 days
Give Plant response rating, Flood, Rice for every item shown.

For CCCn1c(-c2ccccc2F)ncc(C(=O)C2=C(O)CCCC2=O)c1=O , write its Plant response rating, Flood, Rice. 20

Give Plant response rating, Flood, Rice for the following molecule: CCn1c(-c2cccc(F)c2)ncc(C(=O)C2=C(O)CCCC2=O)c1=O 20

Identify the reported Plant response rating, Flood, Rice for the following entry. CCCc1ncc(C(=O)C2=C(O)CCCC2=O)c(=O)n1CCC 20

* * *

- Tested on: umbrella sedge (Cyperus difformis)
- test: Test B flooded paddy test
- Assay type: in vivo
- setup.conditions: Flood (flooded paddy test), 125 g ai/ha; scale 0 to 100, 0 is no effect, 100 is complete control; 13 to 15 days
# label = true if Plant response rating, Sedge, Umbrella >= 80 else false

Quick check: does COCCn1c(-c2cccs2)ncc(C(=O)C2=C(O)CCCC2=O)c1=O have Plant response rating, Sedge, Umbrella greater than or equal to 80? false

Does the reported Plant response rating, Sedge, Umbrella for Cc1cc(F)ccc1-n1c(-c2cccc(Cl)c2)ncc(C(=O)C2=C(O)CCCC2=O)c1=O fall at or above the 80 mark? false

Can CCCn1c(-c2cccc(F)c2)ncc(C(=O)C2=C(O)CCCC2=O)c1=O be said to have Plant response rating, Sedge, Umbrella at or above 80? false

Plant response rating, Sedge, Umbrella >= 80 for O=C(C1=C(O)C2CCC(C2)C1=O)c1cnc(-c2cc(F)cc(F)c2)n(-c2ccccc2)c1=O (centres unmarked) ? true

For this compound, is measured Plant response rating, Sedge, Umbrella 80 or higher? CCCCc1ncc(C(=O)C2=C(O)CCCC2=O)c(=O)n1-c1ccccc1C false

Determine whether measured Plant response rating, Sedge, Umbrella meets or exceeds 80 for CCn1c(-c2ccccc2)ncc(C(=O)C2=C(O)CCCC2=O)c1=O false

Item CC(C)c1ncc(C(=O)C2=C(O)CCCC2=O)c(=O)n1-c1ccccc1 with Plant response rating, Sedge, Umbrella of 80 or above? false

API: above_or_equal(metric=Plant response rating, Sedge, Umbrella, cutoff=80) for item COCCOCCn1c(-c2ccccc2)ncc(C(=O)C2=C(O)CCCC2=O)c1=O true

Is reported Plant response rating, Sedge, Umbrella greater than or equal to 80 here: CCCn1c(-c2cc(F)cc(F)c2)ncc(C(=O)C2=C(O)CC(C)(C)CC2=O)c1=O false
